Data origin: paper PMC10650955

Target: 15N-labelled NDM-1 (Klebsiella pneumoniae)
Construct: made in house
Assay: 1H,15N HSQC NMR chemical shift perturbation titration, NDM-1
Format: binding
Conditions: NDM-1 Kd, NMR chemical shift perturbation, 0-16 equiv. ligand, pH 7.0, 310 K
We label by threshold. Values of Kd strictly beneath 2 mM are met. Values of 2 mM and up are not met.

Here are 3 compounds together with their reported answers.
[[record]]
compound = "O=C(Cc1cccs1)NC(C1CCCCN1)P(=O)(O)O (centres unmarked) [Compound 5i-2]"
class_label = "met"

[[record]]
compound = "O=C(NC(C1CCCCN1)P(=O)(O)O)c1ccsc1 (centres unmarked)"
class_label = "not met"

[[record]]
compound = "O=C(Cc1cccs1)NC(C1CCCCN1)P(=O)(O)O (centres unmarked) [Compound 5i-1]"
class_label = "met"


Prompt line: Is Kd of O=C(Cc1ccsc1)NC(C1CCCCN1)P(=O)(O)O (centres unmarked) strictly below 2 mM?
Response line: not met

---

Below, each of the molecules is paired with its reported pKd value.
Target: 15N-labelled NDM-1 (Klebsiella pneumoniae, UniProt C7C422)
Construct: made in house
Sequence (C7C422 29-270 limits assumed): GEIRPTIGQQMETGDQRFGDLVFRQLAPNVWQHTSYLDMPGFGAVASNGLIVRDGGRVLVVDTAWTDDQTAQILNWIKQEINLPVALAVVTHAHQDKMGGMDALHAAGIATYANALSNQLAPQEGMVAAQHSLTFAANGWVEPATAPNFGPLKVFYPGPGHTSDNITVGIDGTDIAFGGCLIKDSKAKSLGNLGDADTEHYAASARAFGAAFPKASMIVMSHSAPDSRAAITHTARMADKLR
Experiment: 1H,15N HSQC NMR chemical shift perturbation titration, NDM-1
Type: binding
Details: Estimated binding constant (Kd), residue 194I, Table S5; per-residue fit, NDM-1 194I
Note: pKd values are expressed as the negative base-10 logarithm of concentration in M.

Recorded pKd, per entry:
[[record]]
molecule = "O=C(Cc1ccsc1)NC(C1CCCCN1)P(=O)(O)O (centres unmarked)"
test_result = 2.21

[[record]]
molecule = "O=C(Cc1cccs1)NC(C1CCCCN1)P(=O)(O)O (centres unmarked) [Compound 5i-2]"
test_result = 2.60

[[record]]
molecule = "O=C(NC(C1CCCCN1)P(=O)(O)O)c1ccsc1 (centres unmarked)"
test_result = 2.20

[[record]]
molecule = "O=C(Cc1cccs1)NC(C1CCCCN1)P(=O)(O)O (centres unmarked) [Compound 5i-1]"
test_result = 2.30


Prompt line: // fetch pKd given entry O=C(NC(C1CCCCN1)P(=O)(O)O)c1cccs1 (centres unmarked)
Response line: 2.53

---

Molecular target: 15N-labelled NDM-1 (Klebsiella pneumoniae, UniProt C7C422)
Construct: made in house
Assay: 1H,15N HSQC NMR chemical shift perturbation titration, NDM-1
Type: binding
Conditions: Estimated binding constant (Kd), residue 255S, Table S5; per-residue fit, NDM-1 255S
ASSAY_ENDPOINT: log10 Kd (log10 of the value in mM)
For clarity, the numbers are log10 values of Kd expressed in mM.

[[record]]
compound = "O=C(Cc1ccsc1)NC(C1CCCCN1)P(=O)(O)O (centres unmarked)"
assay_endpoint = "log10 Kd"
test_result = 1.27

[[record]]
compound = "O=C(NC(C1CCCCN1)P(=O)(O)O)c1cccs1 (centres unmarked)"
assay_endpoint = "log10 Kd"
test_result = 0.87

[[record]]
compound = "O=C(NC(C1CCCCN1)P(=O)(O)O)c1ccsc1 (centres unmarked)"
assay_endpoint = "log10 Kd"
test_result = 1.03


Prompt line: Output measured log10 Kd for this item: O=C(Cc1cccs1)NC(C1CCCCN1)P(=O)(O)O (centres unmarked) [Compound 5i-2]
Response line: 0.22

Prompt line: # return recorded log10 Kd for input O=C(Cc1cccs1)NC(C1CCCCN1)P(=O)(O)O (centres unmarked) [Compound 5i-1]
Response line: 1.00
